# method.description: yeast display, Sf9 membrane polyspecificity reagent, FACS + sequencing; frameworks hold sequencing errors
measured.attribute: polyreactivity (PSR sort gate)

[
  {
    "entry.sequence": "QVQLVESGGGLVQAGGSLRLSCAASGRIFWWYAMGWYRQAPGKERELVAVIDDSGGITYYADSVKGRFTISRDNAKNTVYLQRNSLKPEDTAVYYCANYYWGQGTQVTVSS",
    "polyreactivity (PSR sort gate)": "low polyreactivity"
  },
  {
    "entry.sequence": "QVQLVESGGGLVQAGGSLRLSCAASGSIFIGNAMGWYRQAPGKERELVAAITWSGGSTTYADSVKGRFTISRDNAKNTVYLQMNSLKPEDTAVYYCNASIYQRYDYWGQGTQVTVSS",
    "polyreactivity (PSR sort gate)": "low polyreactivity"
  },
  {
    "entry.sequence": "QVQLVESGGGLVQAGGSLRLSCAASGSTFYAYTKGWSRQAPGKERELVADISSGGGTYYADSVKGRFTISRDNAKNTVYLQMNSLKPEDTAVYYCNADWRVGRQLSKAKIPYDYWGQGTQVTVSS",
    "polyreactivity (PSR sort gate)": "low polyreactivity"
  },
  {
    "entry.sequence": "QVQLVDSGGGLVQAGGSLRLSCAASGGIFGYGMGWYRQAPGKERELVAAITRSGGSTSYADSVKGRFTISRDNAKYTVYLQMNSVKPEDTAVYFCASRTRYSRYKSGYWGQGTQVTVSS",
    "polyreactivity (PSR sort gate)": "high polyreactivity"
  },
  {
    "entry.sequence": "QVQLVESGGGLVQAGGSLRLSCAASGSTFRFYAMGWYRQAPGKERELVATISSSGGTTYYADSVKGRFTISRDNAKNTVYLQMNSLKPEDTAVYYCAKDAFGWGRVYYYRSGYWGQGTQVTVSS",
    "polyreactivity (PSR sort gate)": "high polyreactivity"
  }
]

Here is the next item to consider.
Given `QVQLVESGGGLVHAGGSLRLSCAASGSIFLLYAMGWYRQAPGKERELVAAITSSGGSTNYADSVKGRFTISRDNAKNTVYLQMNSLKPEDTAVYYCATAPYAYTILGSRFDYWGQGTQVTVSS` , respond with its polyreactivity (PSR sort gate).
low polyreactivity

====

# method.description: yeast display, Sf9 membrane polyspecificity reagent, FACS + sequencing; frameworks hold sequencing errors
measured.attribute: polyreactivity (PSR sort gate)

[
  {
    "entry.sequence": "QVHLVESGGGLVQAGGSLRLSCAASGSIFVYNAMGWYRQAPGKERELVAAIDTVGSTNYADSVKGRFTISRDNAKNTVYLQMNSLKPEDTAVYYCAVVTTYWSFYEQVIPSNYWGQGTQVTVSS",
    "polyreactivity (PSR sort gate)": "low polyreactivity"
  },
  {
    "entry.sequence": "QVQLVESGGGLVQAGGRLRLSCAASGRTFYSNAMGWYSQAPGKERELVAAITFGGGSTYYADSVKGRFTISRDNAKNTVYLQMNSLKPEDTAVYYCAAEGYKYRFYYWGQGTQVTVSS",
    "polyreactivity (PSR sort gate)": "low polyreactivity"
  },
  {
    "entry.sequence": "QVQLVESGGGLVQAGGSLRLSCAASGSTLGRYAMGWYRQAPGKERELVAAISSSGTTYYADSVKGRITISRDNAKNTVYLQMNSLKPEDTAVYYCNARGFRVARHAAWYQYDYWGQGTQVTVSS",
    "polyreactivity (PSR sort gate)": "high polyreactivity"
  },
  {
    "entry.sequence": "QVQLVESWGGLVQAGGSLRLSCAASGFIFRYYAMGWYRQAPGKERELVAAISWSGGSTYYADSVKGRFTISRDNAKYTVYLQMNSLKPVDTAVYYCAADKRGSVYLSSFWMDYWGQGSQVTVSS",
    "polyreactivity (PSR sort gate)": "low polyreactivity"
  },
  {
    "entry.sequence": "QVQLEESGGGLDQAGGSLRLNCAASGLISVYYVRGWYIQAPGKELELVAAINRSGGNTYYADSVKGRFTISRDNAQNTVNLQMNRLKPDVTAVYYCKASLYFYRYGHDYESDYWGQGTQVTVSS",
    "polyreactivity (PSR sort gate)": "high polyreactivity"
  }
]

Given `QVQLVDSGGGLVQAGPSLRLSCAASGSTFYLYAMGWYRQAPGKERELVAAITFRGSRTYYADSVKGRFTISRDNAKNTVYFQMNSLKPEDTAVYYCAADSYIERAYGSLGVWRYDYWGQGTQVTVSS` , respond with its polyreactivity (PSR sort gate).
low polyreactivity

Given `QVQLVESGGGLVQAGGSLRLSCAAAGSTFHANAMGWYRPAPGKERELVAAISRSGGSTNYADSVKGRFTISRDIAKNTVYLQMNSLKPEDTAVYYCAVDYRYYQVYYWGQGTQVTVSS` , respond with its polyreactivity (PSR sort gate).
high polyreactivity

Given `QVQLVESGGGLVQAGGSLRLSCAASGRIFPFYAMGWYRQAPGKERELVAAISTRGGSTYYADSVKGRFTISRDNAKNTVYLQMNSLKPADTAVYYCAADVQAVGYDYWGQGTQVTVSS` , respond with its polyreactivity (PSR sort gate).
high polyreactivity

Given `QVQRVDSGGGIVQAGGSLRLSCADSGSIFNRYAMGWYRQAPGKERELFAAISSSSGSTYYADSVKGRFTISRDNSKNTVYLQMNSLKPEDTAVYYCATRRKVVPTQVGYYYRGGVDYWGQGTQVTVSS` , respond with its polyreactivity (PSR sort gate).
high polyreactivity

Given `QVQLVESWGGLVQAGGSHRLSCAASGRTFGIYAMGWYRQAPGKERELVATISWRGGSTYYADSVKGRFTISRDNAKNTVYLQMNSLKPEDTAVYYCAAGYYPYWGQGTQVTVSS` , respond with its polyreactivity (PSR sort gate).
low polyreactivity

Given `QVQLVESRGGLVQAGGSLRISCAASGSTFVAYAMGWYRQAPAKERELVAAISYSGGSTYYADSVKGRFTISRDYAKNTVSLQMNCLKPEDTAVYYCAAEWSRHYYYGPRYDYWGQGTQVSVSS` , respond with its polyreactivity (PSR sort gate).
low polyreactivity
